Hello, the source for this data is patent US20130338190A1, in case you need it.

The entries below are paired with their reported IC50.
- experimental_target: HER-2 kinase (Homo sapiens, UniProt P04626)
- Sequence (P04626 23-1255): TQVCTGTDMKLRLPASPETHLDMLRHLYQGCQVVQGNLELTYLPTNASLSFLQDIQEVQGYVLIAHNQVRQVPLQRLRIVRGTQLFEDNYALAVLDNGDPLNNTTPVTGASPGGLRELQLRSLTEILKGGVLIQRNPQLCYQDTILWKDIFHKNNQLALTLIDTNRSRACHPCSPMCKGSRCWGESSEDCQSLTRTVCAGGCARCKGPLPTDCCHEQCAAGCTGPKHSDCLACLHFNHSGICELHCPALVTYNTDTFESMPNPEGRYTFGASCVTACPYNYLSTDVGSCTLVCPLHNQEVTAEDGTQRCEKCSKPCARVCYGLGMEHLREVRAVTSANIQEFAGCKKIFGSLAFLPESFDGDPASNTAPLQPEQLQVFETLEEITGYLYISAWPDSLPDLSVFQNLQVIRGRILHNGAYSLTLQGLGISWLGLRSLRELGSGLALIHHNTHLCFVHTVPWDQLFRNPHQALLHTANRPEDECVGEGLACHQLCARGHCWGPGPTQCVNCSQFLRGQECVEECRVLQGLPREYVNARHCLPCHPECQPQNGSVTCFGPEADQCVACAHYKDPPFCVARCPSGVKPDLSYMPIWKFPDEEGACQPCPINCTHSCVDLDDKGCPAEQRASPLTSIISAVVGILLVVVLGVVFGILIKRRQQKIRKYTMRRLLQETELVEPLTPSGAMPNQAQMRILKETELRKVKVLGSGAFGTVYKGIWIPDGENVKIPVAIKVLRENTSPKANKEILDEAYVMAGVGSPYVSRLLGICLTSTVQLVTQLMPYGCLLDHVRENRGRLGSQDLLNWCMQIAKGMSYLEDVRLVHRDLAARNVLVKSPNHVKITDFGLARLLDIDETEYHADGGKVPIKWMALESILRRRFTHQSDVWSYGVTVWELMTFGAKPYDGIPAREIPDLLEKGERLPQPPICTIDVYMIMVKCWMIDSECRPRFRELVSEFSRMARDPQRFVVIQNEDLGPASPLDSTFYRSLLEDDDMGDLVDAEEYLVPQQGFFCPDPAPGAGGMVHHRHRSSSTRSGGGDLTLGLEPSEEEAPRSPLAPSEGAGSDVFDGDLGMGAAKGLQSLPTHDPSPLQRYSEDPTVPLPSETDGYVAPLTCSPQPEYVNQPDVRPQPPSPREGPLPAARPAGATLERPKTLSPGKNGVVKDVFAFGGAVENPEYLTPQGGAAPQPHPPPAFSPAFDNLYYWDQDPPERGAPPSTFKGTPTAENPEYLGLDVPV
- assay_notes: HER-2 kinase activity assay (time-resolved fluorescence)
- measurement_conditions: table of the HER-2 kinase activity assay; human-derived recombinant HER-2 kinase, 20 μM ATP, 25° C., 45 minutes; read-out: IC50 (HER-2/SK-BR-3)
Where a name gives a salt, the structure may show the parent alone.
Express it in nM; write the number only.

Example entries and their recorded answers appear below.
molecule: CCOc1cc2ncc(C#N)c(Nc3ccc(OCc4ccccn4)c(Cl)c3)c2cc1NC(=O)/C=C/[C@H]1CCCN1C [Example 9, dihydrochloride]
endpoint_result: 46
--
molecule: CCOc1cc2ncc(C#N)c(Nc3ccc(OCc4ccccn4)c(Cl)c3)c2cc1NC(=O)/C=C/[C@H]1CCCN1C.O=C(O)C[C@H](O)C(=O)O [Example 3, L-malate]
endpoint_result: 71

Q: Field: IC50 (HER-2 kinase (Homo sapiens, UniProt P04626)). Entry: CCOc1cc2ncc(C#N)c(Nc3ccc(OCc4ccccn4)c(Cl)c3)c2cc1NC(=O)/C=C/[C@H]1CCCN1C.O=C(O)/C=C\C(=O)O [Example 1, maleate]
Result: 53
